Target: rat NMB receptor (Rattus norvegicus)
Construct: a full length NMB-preferring bombesin receptor clone generated from rat esophagus; expressed in transfected cells; host or cells: BALB 3T3 cells
Sequence (P24053 1-390): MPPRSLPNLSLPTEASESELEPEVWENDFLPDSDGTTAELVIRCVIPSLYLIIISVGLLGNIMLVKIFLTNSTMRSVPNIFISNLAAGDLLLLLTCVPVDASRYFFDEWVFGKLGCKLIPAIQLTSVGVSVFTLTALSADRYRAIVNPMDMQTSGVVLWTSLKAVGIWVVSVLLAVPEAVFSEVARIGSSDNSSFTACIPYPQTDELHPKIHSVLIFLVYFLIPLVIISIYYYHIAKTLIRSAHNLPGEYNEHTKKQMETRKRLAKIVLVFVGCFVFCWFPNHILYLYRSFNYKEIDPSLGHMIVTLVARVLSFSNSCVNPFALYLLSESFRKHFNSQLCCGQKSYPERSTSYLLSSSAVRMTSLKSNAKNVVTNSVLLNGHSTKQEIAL
Assay: Binding of 125I-[D-Tyr0]NMB to NMB-R transfected BALB 3T3 cells
Conditions: inhibition of ^125I-[Tyr^0]NMB binding to NMB-R transfected cells
Where a SMILES comes first, the peptide text is derived from it. Bridges are numbered along the chain shown (N, C = ends). [ ]: non-standard residue; d: D form. 2Nal = N[C@@H](Cc1ccc2ccccc2c1)C(=O)O; d2Nal = N[C@H](Cc1ccc2ccccc2c1)C(=O)O; Lys(Et2) = CCN(CC)CCCC[C@H](N)C(=O)O; Lys(iPr) = CC(C)NCCCC[C@H](N)C(=O)O
measured_property: fold by which cyclo SS-octa was more potent than the analog (fold)
Your answer should be a plain number; it is taken to be in fold.

Req: Requested read-out: fold by which cyclo SS-octa was more potent than the analog. Entry: CC(C)[C@@H]1NC(=O)[C@H](CCCCN)NC(=O)[C@@H](Cc2c[nH]c3ccccc23)NC(=O)[C@H](Cc2ccc(O)cc2)NC(=O)[C@@H](NC(=O)[C@H](N)Cc2ccc3ccccc3c2)CSSC[C@@H](C(=O)N[C@H](Cc2ccc3ccccc3c2)C(N)=O)NC1=O [Analog #8, [D-Nal^8]-cyclo SS-octa] (H-[d2Nal]CY[dW]KVC[d2Nal]-NH2; disulfide 2-7; N-terminus assumed)
Resp: 9

Req: Try this molecule too: CCN(CC)CCCC[C@@H]1NC(=O)[C@@H](Cc2c[nH]c3ccccc23)NC(=O)[C@H](Cc2ccc(O)cc2)NC(=O)[C@@H](NC(=O)[C@H](N)Cc2ccccc2)CSSC[C@@H](C(=O)N[C@@H](Cc2ccc3ccccc3c2)C(N)=O)NC(=O)[C@H]([C@@H](C)O)NC1=O [Analog #16] (H-[dF]CY[dW][Lys(Et2)]TC[2Nal]-NH2; disulfide 2-7; N-terminus assumed)
Resp: 18

Req: Try this molecule too: CC(C)[C@@H]1NC(=O)[C@H](CCCCN)NC(=O)[C@@H](Cc2c[nH]c3ccccc23)NC(=O)[C@H](Cc2ccc(O)cc2)NC(=O)[C@@H](NC(=O)[C@H](N)Cc2ccc3ccccc3c2)CSSC[C@H](C(=O)N[C@@H](Cc2ccc3ccccc3c2)C(N)=O)NC1=O [Analog #11, [D-Cys^7]-cyclo SS-octa] (H-[d2Nal]CY[dW]KV[dC][2Nal]-NH2; disulfide 2-7; N-terminus assumed)
Resp: 6

Req: Try this molecule too: CC(C)NCCCC[C@@H]1NC(=O)[C@@H](Cc2c[nH]c3ccccc23)NC(=O)[C@H](Cc2ccc(O)cc2)NC(=O)[C@@H](NC(=O)[C@H](N)Cc2ccccc2)CSSC[C@@H](C(=O)N[C@@H](Cc2ccc3ccccc3c2)C(N)=O)NC(=O)[C@H]([C@@H](C)O)NC1=O [Analog #15] (H-[dF]CY[dW][Lys(iPr)]TC[2Nal]-NH2; disulfide 2-7; N-terminus assumed)
Resp: 9

Req: Try this molecule too: NCCCC[C@@H]1NC(=O)[C@@H](Cc2c[nH]c3ccccc23)NC(=O)[C@H](Cc2ccc(O)cc2)NC(=O)[C@@H](NC(=O)[C@H](N)Cc2ccc3ccccc3c2)CSSC[C@@H](C(=O)N[C@@H](Cc2ccc3ccccc3c2)C(N)=O)NC(=O)[C@H](Cc2ccc3ccccc3c2)NC1=O [Analog #3, [Nal^6]-cyclo SS-octa] (H-[d2Nal]CY[dW]K[2Nal]C[2Nal]-NH2; disulfide 2-7)
Resp: 4

----------
Biological target: NMB Receptor (Rattus norvegicus)
Construct: a full length NMB-preferring bombesin receptor clone generated from rat esophagus; expressed in transfected cells; host or cells: BALB 3T3 cells
Assay: [3H]inositol phosphates (IP) in NMB-R transfected cells
Format: cell-based
Settings: analog 10 µM alone; no-additive control 13 ± 3
Where a SMILES comes first, the peptide text is derived from it. Bridges are numbered along the chain shown (N, C = ends). [ ]: non-standard residue; d: D form. 2Nal = N[C@@H](Cc1ccc2ccccc2c1)C(=O)O; d2Nal = N[C@H](Cc1ccc2ccccc2c1)C(=O)O
Hi there, I'd appreciate the recorded NMB-R Transfected Cells [^3H]IP Alone (10 µ M) for every entry that follows.

Req: Requested read-out: NMB-R Transfected Cells [^3H]IP Alone (10 µ M). Entry: CC(C)[C@@H]1NC(=O)[C@H](CCCCN)NC(=O)[C@@H](Cc2ccc3ccccc3c2)NC(=O)[C@H](Cc2ccc(O)cc2)NC(=O)[C@@H](NC(=O)[C@H](N)Cc2ccc3ccccc3c2)CSSC[C@@H](C(=O)N[C@@H](Cc2ccc3ccccc3c2)C(N)=O)NC1=O [Analog #17, [D-Nal^4]-cyclo SS-octa] (H-[d2Nal]CY[d2Nal]KVC[2Nal]-NH2; disulfide 2-7; N-terminus assumed)
Resp: 12 ± 4 dpm x 10^3

Req: Try this compound too: CC(C)[C@@H]1NC(=O)[C@H](CCCCN)NC(=O)[C@@H](Cc2c[nH]c3ccccc23)NC(=O)[C@H](Cc2ccc(O)cc2)NC(=O)[C@@H](NC(=O)[C@@H](N)Cc2ccc3ccccc3c2)CSSC[C@@H](C(=O)N[C@H](Cc2ccc3ccccc3c2)C(N)=O)NC1=O [Analog #9, [Nal^1,D-Nal^8]-cyclo SS-octa] (H-[2Nal]CY[dW]KVC[d2Nal]-NH2; disulfide 2-7; N-terminus assumed)
Resp: 8 ± 2 dpm x 10^3

----------
Molecular target: GRP Receptor (Rattus norvegicus, UniProt P52500)
Construct: from tissue; host or cells: dispersed pancreatic acini
Sequence (P52500 whole entry): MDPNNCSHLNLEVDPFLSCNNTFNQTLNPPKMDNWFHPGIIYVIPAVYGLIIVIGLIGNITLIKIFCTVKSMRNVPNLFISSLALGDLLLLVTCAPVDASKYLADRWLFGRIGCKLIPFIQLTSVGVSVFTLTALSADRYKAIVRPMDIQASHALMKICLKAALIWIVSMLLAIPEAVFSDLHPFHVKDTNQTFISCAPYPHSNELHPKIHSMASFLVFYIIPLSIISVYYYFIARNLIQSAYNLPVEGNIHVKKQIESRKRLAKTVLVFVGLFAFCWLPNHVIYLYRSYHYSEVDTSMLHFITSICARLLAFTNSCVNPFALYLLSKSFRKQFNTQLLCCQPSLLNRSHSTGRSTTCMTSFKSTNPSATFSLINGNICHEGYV
Assay: Amylase release from rat pancreatic acini
Format: cell-based
Conditions: analog 10 µM plus Bn 0.3 nM; Bn without analog 15 ± 1
Where a SMILES comes first, the peptide text is derived from it. Bridges are numbered along the chain shown (N, C = ends). [ ]: non-standard residue; d: D form. 2Nal = N[C@@H](Cc1ccc2ccccc2c1)C(=O)O; d2Nal = N[C@H](Cc1ccc2ccccc2c1)C(=O)O
measured_property: Rat Pancreatic Acini Amylase Release Plus Bn(0.3 nM)
In your response, put the unit directly after the numeric value.

Req: Requested read-out: Rat Pancreatic Acini Amylase Release Plus Bn(0.3 nM). Entry: NCCCC[C@@H]1NC(=O)[C@@H](Cc2c[nH]c3ccccc23)NC(=O)[C@H](Cc2ccc(O)cc2)NC(=O)[C@@H](NC(=O)[C@H](N)Cc2ccc3ccccc3c2)CSSC[C@@H](C(=O)N[C@@H](Cc2ccc3ccccc3c2)C(N)=O)NC(=O)[C@H](Cc2ccc3ccccc3c2)NC1=O [Analog #3, [Nal^6]-cyclo SS-octa] (H-[d2Nal]CY[dW]K[2Nal]C[2Nal]-NH2; disulfide 2-7)
Resp: 15 ± 1 % total

----------
Target: rat NMB receptor (Rattus norvegicus, UniProt P24053)
Construct: a full length NMB-preferring bombesin receptor clone generated from rat esophagus; expressed in transfected cells; host or cells: BALB 3T3 cells
Assay: Binding of 125I-[D-Tyr0]NMB to NMB-R transfected BALB 3T3 cells
Conditions: inhibition of ^125I-[Tyr^0]NMB binding to NMB-R transfected cells
Where a SMILES comes first, the peptide text is derived from it. Bridges are numbered along the chain shown (N, C = ends). [ ]: non-standard residue; d: D form. 2Nal = N[C@@H](Cc1ccc2ccccc2c1)C(=O)O; d2Nal = N[C@H](Cc1ccc2ccccc2c1)C(=O)O
measured_property: fold by which cyclo SS-octa was more potent than the analog (fold)
Your answer should be a plain number; it is taken to be in fold.

Req: Requested read-out: fold by which cyclo SS-octa was more potent than the analog. Entry: C[C@@H](O)[C@H](NC(=O)[C@@H]1CSSC[C@H](NC(=O)[C@H](N)Cc2ccc3ccccc3c2)C(=O)N[C@@H](Cc2ccc(O)cc2)C(=O)N[C@H](Cc2c[nH]c3ccccc23)C(=O)N[C@@H](CCCCN)C(=O)N[C@@H](Cc2ccc3ccccc3c2)C(=O)N1)C(N)=O [Analog #2, [Nal^6,Thr^8]-cyclo SS-octa]
Resp: 4

Req: Try this compound too: C[C@@H](O)[C@H](NC(=O)[C@@H]1CSSC[C@H](NC(=O)[C@H](N)Cc2ccc3ccccc3c2)C(=O)N[C@@H](Cc2ccc(O)cc2)C(=O)N[C@H](Cc2c[nH]c3ccccc23)C(=O)N[C@@H](CCCCN)C(=O)N[C@@H]([C@@H](C)O)C(=O)N1)C(N)=O [Analog #6, [Thr^6,8]-cyclo-SS-octa]
Resp: 69

Req: Try this compound too: C[C@@H](O)[C@@H]1NC(=O)[C@H](CCCCN)NC(=O)[C@@H](Cc2c[nH]c3ccccc23)NC(=O)[C@H](Cc2ccc(O)cc2)NC(=O)[C@@H](NC(=O)[C@H](N)Cc2ccccc2)CSSC[C@@H](C(=O)N[C@@H](Cc2ccc3ccccc3c2)C(N)=O)NC1=O [Analog #7, [D-Phe^1, Thr^6]-cyclo-SS-octa] (H-[dF]CY[dW]KTC[2Nal]-NH2; disulfide 2-7; N-terminus assumed)
Resp: 18

Req: Try this compound too: CC(C)[C@@H]1NC(=O)[C@H](CCCCN)NC(=O)[C@@H](Cc2c[nH]c3ccccc23)NC(=O)[C@H](Cc2ccc(O)cc2)NC(=O)[C@@H](NC(=O)[C@@H](N)Cc2ccc3ccccc3c2)CSSC[C@@H](C(=O)N[C@H](Cc2ccc3ccccc3c2)C(N)=O)NC1=O [Analog #9, [Nal^1,D-Nal^8]-cyclo SS-octa] (H-[2Nal]CY[dW]KVC[d2Nal]-NH2; disulfide 2-7; N-terminus assumed)
Resp: 6

Req: Try this compound too: CC(C)[C@@H]1NC(=O)[C@H](CCCCN)NC(=O)[C@@H](Cc2ccc3ccccc3c2)NC(=O)[C@H](Cc2ccc(O)cc2)NC(=O)[C@@H](NC(=O)[C@H](N)Cc2ccc3ccccc3c2)CSSC[C@@H](C(=O)N[C@@H](Cc2ccc3ccccc3c2)C(N)=O)NC1=O [Analog #17, [D-Nal^4]-cyclo SS-octa] (H-[d2Nal]CY[d2Nal]KVC[2Nal]-NH2; disulfide 2-7; N-terminus assumed)
Resp: 2

Req: Try this compound too: CC(C)[C@@H]1NC(=O)[C@H](CCCCN)NC(=O)[C@@H](Cc2c[nH]c3ccccc23)NC(=O)[C@H](Cc2ccc(O)cc2)NC(=O)[C@@H](NC(=O)[C@H](N)Cc2c[nH]c3ccccc23)CSSC[C@@H](C(=O)N[C@@H](Cc2ccc3ccccc3c2)C(N)=O)NC1=O [Analog #12, [D-Trp^1]-cyclo SS-octa] (H-[dW]CY[dW]KVC[2Nal]-NH2; disulfide 2-7; N-terminus assumed)
Resp: 9
